# Lookup of reported enrichment ratio keyed by entry
B1: PhoQ; a variant is named by its letters at X, in order, P23837 (parent)
chain: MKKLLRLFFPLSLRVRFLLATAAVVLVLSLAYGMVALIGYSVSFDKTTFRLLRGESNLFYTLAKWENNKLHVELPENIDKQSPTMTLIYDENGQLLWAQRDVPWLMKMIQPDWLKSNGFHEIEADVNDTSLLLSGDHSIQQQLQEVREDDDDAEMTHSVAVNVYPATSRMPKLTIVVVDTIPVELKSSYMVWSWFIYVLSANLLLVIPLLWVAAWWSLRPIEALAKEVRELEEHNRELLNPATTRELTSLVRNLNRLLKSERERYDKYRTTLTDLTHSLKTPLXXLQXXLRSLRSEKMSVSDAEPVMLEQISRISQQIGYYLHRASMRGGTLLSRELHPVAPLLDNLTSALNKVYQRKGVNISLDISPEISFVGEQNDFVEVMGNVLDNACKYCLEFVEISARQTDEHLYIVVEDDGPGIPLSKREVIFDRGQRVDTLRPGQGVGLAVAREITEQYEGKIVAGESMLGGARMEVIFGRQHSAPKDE

Variants of: B1
Assay: enrichment ratio after two sorts for PhoP signalling (ratio (wild type AVST 3.29)); higher = more functional
Conditions: with PhoP (E. coli)
Whole data set: some 140,000 sequences, median “enrichment ratio after two sorts for PhoP signalling” near 0, cut for the highest 2% near 11. What follows is part of a selection rich in the highest values, with near analogues and random picks from the rest.
The response must contain the number and no unit.

{"mutant_label": "TVGG", "observed_value": 16.2}
{"mutant_label": "TVGQ", "observed_value": 15.3}
{"mutant_label": "TGCL", "observed_value": 22.4}
{"mutant_label": "MSWV", "observed_value": 10.2}
{"mutant_label": "MSMV", "observed_value": 12.7}
{"mutant_label": "MSMG", "observed_value": 2.86}
{"mutant_label": "TCQL", "observed_value": 13.2}
{"mutant_label": "CSCL", "observed_value": 16.1}

// query enrichment ratio value for entry MSMI
23.5
